target: IL-17A/F (Homo sapiens, UniProt Q16552+Q96PD4); assay: IL-17A/F HEK-Blue cell assay (SEAP reporter); settings: HEK-Blue IL-17A reporter cells, IL17A/F 5 ng/mL, 20 hours, SEAP read at A630; read-out: HEK-Blue IL17AF (IC50 for IL-17A/F inhibition)
Sequence (Q16552 24-155): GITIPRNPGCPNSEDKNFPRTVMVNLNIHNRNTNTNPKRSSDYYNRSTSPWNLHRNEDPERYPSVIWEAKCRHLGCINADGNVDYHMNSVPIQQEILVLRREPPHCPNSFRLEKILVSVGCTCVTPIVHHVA
Sequence (Q96PD4 31-163): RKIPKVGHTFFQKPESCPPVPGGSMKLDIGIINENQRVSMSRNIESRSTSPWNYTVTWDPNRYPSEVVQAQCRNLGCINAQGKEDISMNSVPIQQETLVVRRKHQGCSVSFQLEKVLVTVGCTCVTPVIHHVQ
pIC50: −log10 of the molar value.
result-type: pIC50

Some entries whose results are on file:
compound	pIC50
CCn1nccc1C(=O)N[C@H](c1cn2nc(C[C@H]3C[C@@H](C(F)(F)F)CNC3=O)c(CN3CCC4(CC3)CC4)nc2n1)C1CCC(F)(F)CC1	< 6.00
CCn1nccc1C(=O)N[C@H](c1cn2nc(C[C@H]3C[C@@H](C(F)(F)F)CNC3=O)c(C3CCS(=O)(=O)CC3)nc2n1)C1CCC(F)(F)CC1	6.00 to 7.00

Please look at the following compound next.
INPUT: What value of pIC50 has been recorded for this entry: CCn1nccc1C(=O)N[C@H](c1cn2nc(C[C@H]3C[C@@H](C(F)(F)F)CNC3=O)c(C(C)C(F)(F)F)nc2n1)C1CCC(F)(F)CC1 (stereo partly drawn) [Compound 214]
OUTPUT: 6.00 to 7.00

Where these numbers come from: patent US20260226068A1
